Data origin, for the record: patent US20070110757A1

- system_name: RSV F protein on respiratory syncytial virus (RSV-Long strain) (respiratory syncytial virus (Long strain)) (UniProt P12568)
- Sequence (P12568 26-574): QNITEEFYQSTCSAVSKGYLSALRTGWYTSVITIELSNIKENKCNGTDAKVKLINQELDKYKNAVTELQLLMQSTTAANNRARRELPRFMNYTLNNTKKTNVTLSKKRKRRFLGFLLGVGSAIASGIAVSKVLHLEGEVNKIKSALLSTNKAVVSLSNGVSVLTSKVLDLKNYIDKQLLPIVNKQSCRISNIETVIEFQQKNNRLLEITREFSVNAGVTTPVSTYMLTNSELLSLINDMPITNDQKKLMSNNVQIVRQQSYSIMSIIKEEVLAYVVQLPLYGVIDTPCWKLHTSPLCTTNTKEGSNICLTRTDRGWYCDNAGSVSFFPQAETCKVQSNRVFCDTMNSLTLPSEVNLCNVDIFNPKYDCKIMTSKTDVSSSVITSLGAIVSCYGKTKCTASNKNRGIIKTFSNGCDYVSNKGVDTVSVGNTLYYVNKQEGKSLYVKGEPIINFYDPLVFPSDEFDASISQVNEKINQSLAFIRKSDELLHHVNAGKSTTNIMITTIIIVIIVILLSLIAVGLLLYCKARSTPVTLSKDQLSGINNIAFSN
- assay_details: cell-based or functional assay
Can you tell me Mean IC50 (Control), RSV microneutralization for the items I'm about to list?
Give bare numbers, in µg/mL.

A8c7 Fab fragment (Fab, V domains shown) VH: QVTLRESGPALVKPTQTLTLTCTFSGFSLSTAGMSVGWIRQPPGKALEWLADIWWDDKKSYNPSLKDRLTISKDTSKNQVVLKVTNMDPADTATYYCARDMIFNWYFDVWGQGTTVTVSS VL: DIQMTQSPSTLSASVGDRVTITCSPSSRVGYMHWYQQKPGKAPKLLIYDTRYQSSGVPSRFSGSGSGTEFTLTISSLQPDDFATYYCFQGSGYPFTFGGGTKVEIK : 0.157
A13a11 Fab fragment (Fab, V domains shown) VH: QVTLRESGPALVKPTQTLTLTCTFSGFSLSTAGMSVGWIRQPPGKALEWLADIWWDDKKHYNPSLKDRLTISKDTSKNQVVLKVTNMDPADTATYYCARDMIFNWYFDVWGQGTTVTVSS VL: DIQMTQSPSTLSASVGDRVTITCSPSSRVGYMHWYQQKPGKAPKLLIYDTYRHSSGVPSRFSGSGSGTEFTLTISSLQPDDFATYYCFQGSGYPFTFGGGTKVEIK : 0.102

# evaluate next
Challenge: Please give the documented Mean IC50 (Control), RSV microneutralization of A13c4 monoclonal antibody (antibody, V domains shown) VH: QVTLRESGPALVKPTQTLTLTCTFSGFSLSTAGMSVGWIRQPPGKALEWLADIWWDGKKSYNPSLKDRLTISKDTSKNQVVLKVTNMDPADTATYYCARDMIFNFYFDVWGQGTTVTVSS VL: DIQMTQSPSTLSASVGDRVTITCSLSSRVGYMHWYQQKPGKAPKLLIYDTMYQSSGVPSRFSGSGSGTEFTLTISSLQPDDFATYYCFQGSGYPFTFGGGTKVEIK
Response given: 0.0375
